TEST_DETAILS: Tmax in Balb-C mouse plasma at 5 mg/kg, po
Format: ADME, organism-based
Set-up: dose 5 mg/kg, route oral
Below is a list of entries, each paired with its recorded Tmax value.

{"RECORD_SMILES": "COc1cc(Cl)c(-c2nc(SCC(=O)N(C)C)nc3[nH]cc(C#N)c23)cc1OC", "Tmax (min)": 15}
{"RECORD_SMILES": "COc1cc(Cl)c(-c2nc(SCC(=O)N(C)C)nc3[nH]cc(C#N)c23)cc1O", "Tmax (min)": 15}

---

TEST_DETAILS: Binding affinity to HSP90 after 30 mins by ITC assay
pKd: −log10 of the molar value.
Below is a list of entries, each paired with its recorded pKd value.

{"RECORD_SMILES": "CSc1nc(-c2ccc(F)cc2C)c2nc[nH]c2n1", "RESULT_OPERATOR": "=", "pKd": 5.56}
{"RECORD_SMILES": "CNc1nc(-c2ccc(F)cc2C)c2c(C#N)c[nH]c2n1", "RESULT_OPERATOR": "=", "pKd": 5.43}
{"RECORD_SMILES": "CSc1nc(-c2ccc(C)cc2C)c2c(C#N)c[nH]c2n1", "RESULT_OPERATOR": "=", "pKd": 6.81}
{"RECORD_SMILES": "COc1nc(-c2ccc(F)cc2C)c2c(C#N)c[nH]c2n1", "RESULT_OPERATOR": "=", "pKd": 6.14}
{"RECORD_SMILES": "CCc1nc(-c2ccc(F)cc2C)c2c(C#N)c[nH]c2n1", "RESULT_OPERATOR": "=", "pKd": 5.74}
{"RECORD_SMILES": "COc1cc(Cl)c(-c2nc(SCC(=O)N(C)C)nc3[nH]cc(C#N)c23)cc1OC", "RESULT_OPERATOR": ">", "pKd": 8.52}
{"RECORD_SMILES": "CSc1nc(-c2ccc(F)cc2C)c2c(C#N)c[nH]c2n1", "RESULT_OPERATOR": "=", "pKd": 6.60}
{"RECORD_SMILES": "Cc1ccc(-c2ncnc3[nH]cc(C#N)c23)c(C)c1", "RESULT_OPERATOR": "=", "pKd": 5.79}

---

STUDY_TARGET: UniProtKB P08238
TEST_DETAILS: Inhibition of fluorescently labeled VER51001 binding to full length human HSP90beta after 30 mins by fluorescence polarization assay
Below is a list of entries, each paired with its recorded Ki value.
PROPERTY_LABEL: Ki

{"RECORD_SMILES": "CCOc1cc(-c2nc(SCC(=O)NC(C)C)nc3[nH]cc(C#N)c23)c(Cl)cc1OC", "PROPERTY_LABEL": "Ki", "VALUE_REPORTED": "< 1 nM"}
{"RECORD_SMILES": "COc1cc(Cl)c(-c2nc(SCC(=O)NCC(F)(F)F)nc3[nH]cc(C#N)c23)cc1OC", "PROPERTY_LABEL": "Ki", "VALUE_REPORTED": "< 1 nM"}
{"RECORD_SMILES": "CSc1nc(-c2ccc(C#N)cc2)c2cc[nH]c2n1", "PROPERTY_LABEL": "Ki", "VALUE_REPORTED": "> 200000 nM"}

---

STUDY_TARGET: Heat shock protein HSP 90-beta (Homo sapiens, UniProt P08238)
Sequence (P08238 whole entry): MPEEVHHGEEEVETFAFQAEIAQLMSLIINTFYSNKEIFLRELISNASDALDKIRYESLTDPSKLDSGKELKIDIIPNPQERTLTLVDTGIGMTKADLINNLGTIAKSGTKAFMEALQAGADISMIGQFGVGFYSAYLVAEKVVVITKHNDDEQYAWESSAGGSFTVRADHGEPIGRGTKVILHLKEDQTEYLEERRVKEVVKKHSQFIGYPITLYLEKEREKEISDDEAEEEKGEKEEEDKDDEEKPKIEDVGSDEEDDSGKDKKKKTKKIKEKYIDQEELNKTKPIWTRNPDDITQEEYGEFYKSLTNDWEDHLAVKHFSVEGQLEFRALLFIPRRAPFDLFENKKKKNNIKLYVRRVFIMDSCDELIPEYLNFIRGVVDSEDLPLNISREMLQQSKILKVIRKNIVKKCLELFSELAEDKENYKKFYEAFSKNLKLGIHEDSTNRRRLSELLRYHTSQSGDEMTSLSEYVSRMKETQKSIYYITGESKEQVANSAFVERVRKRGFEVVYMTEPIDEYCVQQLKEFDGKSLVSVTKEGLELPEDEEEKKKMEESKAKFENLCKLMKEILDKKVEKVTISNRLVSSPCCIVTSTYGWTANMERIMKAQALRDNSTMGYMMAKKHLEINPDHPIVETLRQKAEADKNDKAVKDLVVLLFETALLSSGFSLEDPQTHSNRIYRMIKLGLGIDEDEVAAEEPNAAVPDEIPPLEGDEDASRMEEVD
TEST_DETAILS: Inhibition of fluorescently labeled VER51001 binding to full length human HSP90beta after 30 mins by fluorescence polarization assay
Below is a list of entries, each paired with its recorded Ki value.
PROPERTY_LABEL: Ki

{"RECORD_SMILES": "CCOc1cc(-c2nc(SCC(=O)NC3CC3)nc3[nH]cc(C#N)c23)c(Cl)cc1OC", "STUDY_TARGET": "Heat shock protein HSP 90-beta (Homo sapiens, UniProt P08238)", "VALUE_REPORTED": "< 1 nM"}
{"RECORD_SMILES": "COc1cc(Cl)c(-c2nc(SCC(=O)N(C)C)nc3[nH]cc(C#N)c23)cc1OC", "STUDY_TARGET": "Heat shock protein HSP 90-beta (Homo sapiens, UniProt P08238)", "VALUE_REPORTED": "< 1 nM"}
{"RECORD_SMILES": "CSc1nc(-c2ccc(F)cc2C)c2c(C(N)=O)c[nH]c2n1", "STUDY_TARGET": "Heat shock protein HSP 90-beta (Homo sapiens, UniProt P08238)", "VALUE_REPORTED": "> 200000 nM"}
{"RECORD_SMILES": "CNC(=O)CSc1nc(-c2cc(OC)c(OC)cc2Cl)c2c(C#N)c[nH]c2n1", "STUDY_TARGET": "Heat shock protein HSP 90-beta (Homo sapiens, UniProt P08238)", "VALUE_REPORTED": "< 1 nM"}
{"RECORD_SMILES": "COc1cc(Cl)c(-c2nc(SCC(=O)NC3CC3)nc3[nH]cc(C#N)c23)cc1O", "STUDY_TARGET": "Heat shock protein HSP 90-beta (Homo sapiens, UniProt P08238)", "VALUE_REPORTED": "< 1 nM"}
{"RECORD_SMILES": "CSc1nc(-c2ccc(C)cc2C)c2cc[nH]c2n1", "STUDY_TARGET": "Heat shock protein HSP 90-beta (Homo sapiens, UniProt P08238)", "VALUE_REPORTED": "> 200000 nM"}
